# Test system: OVCAR-8 ovarian
# measurementNotes: NCI tumour cell line growth inhibition, 48 h
recordedEndpoint: TGI

Recall and state the measured TGI for O=C1C2C3C=C4c5ccccc5N(c5ccccc5)C4(C2C(=O)N1c1ccc([N+](=O)[O-])cc1)[C@H]1C(=O)N(c2ccc([N+](=O)[O-])cc2)C(=O)[C@@H]31 (stereo partly drawn) .
> 100 µM

Provide only the value of recorded TGI for CCO/C=N\C1=C(C#N)SC2=N/C(=C\c3ccc(OC)cc3)C(=O)N21
> 100 µM

Read the entry CCCCCCCCCCCC(=O)OCC(C[As](=O)(O)O)OC(=O)CCCCCCCCCCC (stereo not drawn) and write its reported TGI.
24.8 µM

Provide TGI value for the following molecule: O=C1CC(c2cccc([N+](=O)[O-])c2)C2(C(=O)NC(=O)NC2=O)C(c2cccc([N+](=O)[O-])c2)C1 (stereo not drawn)
> 100 µM

Report measured TGI; entry is CC1=CC(=O)C=CC1=O
41.4 µM

Using the record for O=C(CC(=O)n1nc(-c2ccccc2)c(N=Nc2ccc(Cl)cc2)c1-c1ccccc1)Nc1ccc(Cl)cc1 , state its measured TGI.
> 100 µM

// Input: CC(=O)OC1C(Oc2c(C)cc3c(c2O)[C@@H](C)CC[C@@H]3[C@@H](C)CCC=C(C)C)OCC(O)C1O (stereo partly drawn) . Output its TGI only.
47.4 µM

Specify reported TGI for the molecule shown: O=C1/C(=C(/c2ccccc2)N2CCOCC2)Cc2ccccc21
13.7 µM

----------
# Test system: NCI-H23 lung
# measurementNotes: NCI tumour cell line growth inhibition, 48 h
recordedEndpoint: TGI

Please indicate TGI recorded for O=c1cc(NCC(O)CN2CCCC2)n(Cc2ccccc2)c(=O)n1Cc1ccccc1 (stereo unspecified)
> 100 µM

State its TGI: COc1ccc(-c2nc3ccccn3c2/C=C/C(=O)c2cc(OC)c(OC)c(OC)c2)cc1OC
> 100 µM

Find the measured TGI of c1ccc(C2N3CCCCC3[C@@H]3c4[nH]c5ccccc5c4CCN23)nc1 (stereo partly specified) and report it.
> 100 µM

Return TGI for the following compound: NC(=O)c1cc(Cl)ccc1NC(=O)/C=C/c1ccccc1
> 100 µM

Give reported TGI value for CC1CCCCNC1=S (stereo unspecified)
> 10 µM

Entry Cc1cc2ncnn2cc1Nc1ncc2c(n1)n(C1CCOCC1)c(=O)n2C needs its TGI filled in; supply it.
> 100 µM

----------
# Tested on: BT-549 breast
# measurementNotes: NCI tumour cell line growth inhibition, 48 h
Record form. Attribute: TGI. Fill in for each entry.

Please look at this compound and report its TGI: Clc1ccc(-c2cc3nc4ccccc4nc3o2)cc1
> 100 µM

Using known records, supply TGI for CCc1cc(Cc2cc(CC)c(NC(=O)C(=O)CC(=O)c3sc(-c4cccnc4)nc3C)c(CC)c2)cc(CC)c1NC(=O)C(=O)CC(=O)c1sc(-c2cccnc2)nc1C
> 100 µM

Read the entry CCOP(=O)(OCC)C(c1ccc(F)cc1)N(C(=O)NC(F)(F)F)c1cccc(C(F)(F)F)c1 (centres undefined) and write its reported TGI.
> 100 µM

Indicate its recorded TGI; the compound in question is O=C1CC(c2cccc([N+](=O)[O-])c2)C2(C(=O)NC(=O)NC2=O)C(c2cccc([N+](=O)[O-])c2)C1 (centres undefined)
> 100 µM

Answer with reported TGI of OCC1OC(n2cnc3c2NC=NC[C@H]3O)C(Cl)C1O (some centres undefined)
> 100 µM

Report TGI for COc1ccc(C[N+](C)(C)N)cc1OC
> 100 µM

Note TGI for the compound shown: N#C[C@@H](c1ccccn1)c1ncccc1[N+](=O)[O-]
> 100 µM

Please look at this compound and report its TGI: CN1CCc2nc(N)nc(-c3nc(N)nc4c3CN(C)CC4)c2C1
> 100 µM

Entry C=CCCC1(CC(Sc2ccccc2)P(=O)(c2ccccc2)c2ccccc2)OCCO1 (centres undefined) needs its TGI filled in; supply it.
> 10 µM

Note down TGI recorded for O=C(NC(Cc1ccccc1)(Cc1ccc(O)cn1)C(=O)O)c1ccccc1 (centres undefined)
> 100 µM

Report TGI, nothing else, for this compound: NC(=O)c1cc(Cl)ccc1NC(=O)/C=C/c1ccccc1
> 100 µM

Identify measured TGI corresponding to CCOC(=O)C1C(=O)CC1(C)C (centres undefined)
> 10 µM

Give the reported value of TGI for this record: CC(C)=C[C@H]1CCC2(OCCO2)[C@]1(C)CO
> 100 µM

For the compound COc1ccc(C(=O)c2cc(C)c(OC)c(C)c2)c(OC)c1O , give its measured TGI value.
> 62 µM

Tell me its TGI given O=C(N/N=C\C=C\c1ccc([N+](=O)[O-])o1)C(=O)N/N=C\C=C\c1ccc([N+](=O)[O-])o1 as the entry.
> 100 µM

State, in one line, measured TGI of COCc1nc2c(OC)c(-c3nc4nc(N5CCN(C)CC5)ccc4[nH]3)cc(OC)c2n1C
> 100 µM

Determine from records and report TGI for CCOc1ncn(-c2ccc(NC(=S)NC3OC(CO)C(O)C(O)C3O)cc2)n1 (centres undefined)
> 100 µM

Supply TGI value. Item: N#CCCC(CCC#N)(CCC#N)NO
> 100 µM

Determine from records and report TGI for CCCc1c(O)nc(Nc2nc3ccccc3[nH]2)[nH]c1=O
> 100 µM

// Input: CC(=O)[C@@H](C)C(=O)N1C(=O)OC[C@@]12[C@@H]1CC[C@@H](C1)C2(C)C . Output its TGI only.
> 100 µM

Answer with reported TGI of CCc1nc(N)nc(N)c1-c1ccc(NC)c([N+](=O)[O-])c1
> 100 µM

Fill in TGI for record NNC(=S)N/N=C(/C(=O)Nc1ccc(Cl)c(Cl)c1)C(C1OC(=O)c2ccccc21)[N+](=O)[O-] (centres undefined)
> 100 µM

Tell me measured TGI for C[N+]1(C)CCc2cc(O)c(O)cc2C1Cc1ccc(O)c(O)c1 (centres undefined) please.
> 100 µM

Complete the entry with TGI for c1ccc(Sc2ccc(Cc3nc4cc5ccccc5cc4[nH]3)cc2)cc1
> 84.9 µM
